The origin of these recorded values is ChEMBL document CHEMBL1909046.

test target: 5-hydroxytryptamine receptor 2B (Homo sapiens)
Sequence (P41595 whole entry): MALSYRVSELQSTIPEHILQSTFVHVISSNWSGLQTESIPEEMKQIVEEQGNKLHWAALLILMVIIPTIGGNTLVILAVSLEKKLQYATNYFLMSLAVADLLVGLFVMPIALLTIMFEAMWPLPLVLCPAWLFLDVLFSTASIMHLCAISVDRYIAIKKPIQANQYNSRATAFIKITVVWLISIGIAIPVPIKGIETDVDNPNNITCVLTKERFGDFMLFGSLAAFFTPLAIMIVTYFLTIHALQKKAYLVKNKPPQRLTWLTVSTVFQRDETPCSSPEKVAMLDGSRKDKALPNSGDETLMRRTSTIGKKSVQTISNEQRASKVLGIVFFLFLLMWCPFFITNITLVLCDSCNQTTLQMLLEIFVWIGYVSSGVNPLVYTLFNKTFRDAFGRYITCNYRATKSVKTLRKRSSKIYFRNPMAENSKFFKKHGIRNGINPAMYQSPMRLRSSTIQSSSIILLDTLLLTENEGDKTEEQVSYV
Type: cell membranes, CHO-K1, Membrane
study conditions: read-out: Ki

compound: Cc1c(C)c2c(c(C)c1O)CCC(C)(COc1ccc(CC3SC(=O)NC3=O)cc1)O2 (centres undefined)
unit tag: µM
Ki: 0.835
--
compound: CN(C)CCCN1c2ccccc2Sc2ccccc21
unit tag: µM
Ki: 0.221
--
compound: CC(C)[C@@]1(NC(=O)[C@@H]2C[C@@H]3c4cccc5[nH]cc(c45)C[C@H]3N(C)C2)O[C@@]2(O)[C@@H]3CCCN3C(=O)[C@H](Cc3ccccc3)N2C1=O.CS(=O)(=O)O [DIHYDROERGOCRISTINE MESYLATE]
unit tag: µM
Ki: 0.0042
--
compound: c1ccc(Nc2ccc(Nc3ccccc3)cc2)cc1
unit tag: µM
Ki: 0.09
